Values from PubChem BioAssay AID588519

Target: Genome polyprotein (Poliovirus type 1 (strain Mahoney))
Assay: poliovirus RdRp elongation inhibitors, primary screen, biochemical, fluorescence polarization, total intensity (AID 588519)
Conditions: poliovirus polymerase elongation, measured here: FP z-score, stronger effect = lower value
Out of some 150,000 compounds screened, about 1,000 (0.67%) were called active. What follows is part of a selection rich in actives, with near analogues and random picks from the rest.
// classify: if (z-score < 0) rule met else rule not met

Query: In the record for CCOC(=O)C1(C2(O)C(=O)c3ccccc3C2=O)CCCC1=O (configuration not stated) , is z-score less than 0?
Reply: rule met

* * *

Biological target: Genome polyprotein (Poliovirus type 1 (strain Mahoney))
Test: poliovirus RdRp elongation inhibitors, primary screen, biochemical, fluorescence polarization, total intensity (AID 588519)
Details: poliovirus polymerase elongation, measured here: FP z-score, stronger effect = lower value
The campaign covered roughly 150,000 compounds. About 1,000 (0.67%) were called active. The entries come from a sample that favours actives as a whole.
Let's look at some compounds and their measured z-score.
Reply with just the number.

Query: Suppose we examine the compound C=CCN1CCN(C(c2ccc(C)cc2)c2nnnn2C2CCCC2)CC1 (configuration not stated) ; what z-score value has been reported?
Reply: 0.4

Query: Suppose we examine the compound CCn1c2ccccc2c2cc(P(=S)(OC)OC)ccc21 ; what z-score value has been reported?
Reply: -2.3

Query: Suppose we examine the compound Fc1ccc(NC(=S)N2CCN=C2Nc2ccc(F)cc2)cc1 ; what z-score value has been reported?
Reply: -5.7

* * *

Biological target: Genome polyprotein (Poliovirus type 1 (strain Mahoney)) (UniProt P03300)
Sequence (P03300 1749-2209 limits assumed): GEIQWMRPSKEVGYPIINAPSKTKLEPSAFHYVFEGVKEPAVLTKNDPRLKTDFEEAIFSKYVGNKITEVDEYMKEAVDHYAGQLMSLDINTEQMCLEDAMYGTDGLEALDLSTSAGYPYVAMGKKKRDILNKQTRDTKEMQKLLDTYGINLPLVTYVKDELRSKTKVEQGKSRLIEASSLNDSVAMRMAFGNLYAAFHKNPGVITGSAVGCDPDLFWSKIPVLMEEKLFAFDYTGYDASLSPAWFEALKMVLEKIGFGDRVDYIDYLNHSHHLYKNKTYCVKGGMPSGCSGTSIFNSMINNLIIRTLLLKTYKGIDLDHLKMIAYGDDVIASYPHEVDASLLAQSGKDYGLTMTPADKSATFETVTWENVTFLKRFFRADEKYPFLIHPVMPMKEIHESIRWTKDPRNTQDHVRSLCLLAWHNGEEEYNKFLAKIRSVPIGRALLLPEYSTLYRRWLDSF
Test: poliovirus RdRp elongation inhibitors, primary screen, biochemical, fluorescence polarization, total intensity (AID 588519)
Conditions: poliovirus polymerase elongation, measured here: FP z-score, stronger effect = lower value
In all, about 150,000 compounds went through this assay and about 1,000 (0.67%) were called active. Only a selection was taken, and actives are over-represented in it overall.
// classify: if (z-score < -1) y else n

Past entries and their recorded results:
[
  {
    "compound": "N#CSc1ccc(N)c(Br)c1",
    "assigned-class": "y"
  },
  {
    "compound": "COc1ccc(C(C#N)OC(C)=O)c(OCc2ccccc2)c1OC (configuration not stated)",
    "assigned-class": "n"
  }
]

Query: In the record for COc1ccccc1NC(=O)Nc1cc(C(C)(C)C)nn1-c1ccccc1 , is z-score less than -1?
Reply: n

Query: In the record for O=S(=O)(c1cc(S(=O)(=O)C(F)(F)F)c(Cl)c(S(=O)(=O)C(F)(F)F)c1)C(F)(F)F , is z-score less than -1?
Reply: n

Query: In the record for COc1ccc(S(=O)(=O)NCCSc2nnnn2-c2ccccc2)cc1 , is z-score less than -1?
Reply: y

Query: In the record for COc1ccc(O)c(C(=O)c2cnn3c(N)nnc3c2)c1 , is z-score less than -1?
Reply: y

Query: In the record for Cc1ccc2nc(C)cc(Nc3ccccc3)c2c1 , is z-score less than -1?
Reply: n

Query: In the record for CN(C)C(=O)CCSc1nc2cc(Cl)ccc2o1 , is z-score less than -1?
Reply: n

Query: In the record for COC(=O)C1CCN(S(=O)(=O)c2ccc(Cl)cc2)CC1 , is z-score less than -1?
Reply: n

Query: In the record for COc1ccc(O)c(C(=O)c2cnn(C(=O)c3ccc4c(=O)n5c(nc4c3)CCC5)c2)c1 , is z-score less than -1?
Reply: n

Query: In the record for C=C(C)CNC(=S)N1CCNCC1 , is z-score less than -1?
Reply: n

* * *

Target: Genome polyprotein (Poliovirus type 1 (strain Mahoney)) (UniProt P03300)
Assay: poliovirus RdRp elongation inhibitors, primary screen, biochemical, fluorescence polarization, total intensity (AID 588519)
Settings: poliovirus polymerase elongation, measured here: FP z-score, stronger effect = lower value
In all, about 150,000 compounds went through this assay and about 1,000 (0.67%) were called active. This is one part of a sample in which actives are shown more often than they occur.
// classify: if (z-score < -0.3) TRUE else FALSE

Query: In the record for Nc1nnc(-c2ccc(Cn3c(-c4cncs4)nc4ccccc43)cc2)s1 , is z-score less than -0.3?
Reply: TRUE

Query: In the record for COC(=O)c1c(NC(=O)CCCOc2ccccc2)sc2c1CCC(C)C2 (stereo unspecified) , is z-score less than -0.3?
Reply: FALSE

Query: In the record for CC(=O)Nc1nc2ccccc2n1Cc1ccc(C)cc1 , is z-score less than -0.3?
Reply: TRUE

Query: In the record for CCOc1ccc(NC(=O)c2c(NCc3cccc(OC)c3OC)sc3c2CCC3)cc1 , is z-score less than -0.3?
Reply: FALSE

Query: In the record for CC(C)(C)NC(=O)C1CCN(S(=O)(=O)c2ccccc2)CC1 , is z-score less than -0.3?
Reply: FALSE

* * *

Biological target: Genome polyprotein (Poliovirus type 1 (strain Mahoney)) (UniProt P03300)
Test: poliovirus RdRp elongation inhibitors, primary screen, biochemical, fluorescence polarization, total intensity (AID 588519)
Conditions: poliovirus polymerase elongation, measured here: total intensity read-out, stronger effect = lower value, compound at 16.7 µg/mL
Screen size: about 150,000 compounds; about 1,000 (0.67%) were called active. The entries come from a sample that favours actives as a whole.
observation-type: % elongation
Answer shape: numeric part, then the unit.

[
  {
    "molecule": "CCOC(=O)c1cnc2c(C)c(C)ccc2c1NCCCN(C)C",
    "meas-value": "53%"
  },
  {
    "molecule": "S=C(c1ccc(-c2ccc(Cl)cc2)o1)N1CCN(c2ccccc2)CC1",
    "meas-value": "70%"
  },
  {
    "molecule": "Cc1ccccc1CN1CCCN(Cc2ccccc2)S1(=O)=O",
    "meas-value": "99%"
  }
]

Query: Suppose we examine the molecule CCSc1nnc(NC(=O)c2ccc(C)c(S(=O)(=O)N(CC)CC)c2)s1 ; what % elongation value has been reported?
Reply: 98%

Query: Suppose we examine the molecule Cc1ccc(O)c(NC(=O)c2cccs2)c1 ; what % elongation value has been reported?
Reply: 108%

Query: Suppose we examine the molecule CCOC(=O)c1cnc2c(C)cc(Cl)cc2c1NCCc1ccc(OC)c(OC)c1 ; what % elongation value has been reported?
Reply: 104%

* * *

Target: Genome polyprotein (Poliovirus type 1 (strain Mahoney))
Assay: poliovirus RdRp elongation inhibitors, primary screen, biochemical, fluorescence polarization, total intensity (AID 588519)
Details: poliovirus polymerase elongation, stronger effect = lower value, compound at 16.7 µg/mL
Hit rate of the full screen: of about 150,000 compounds, about 1,000 (0.67%) were called active. The full list was thinned out, with actives kept by preference.
observation-type: % elongation (%)
Kindly answer with a numeric value in %, unit omitted.

Study these solved cases before continuing.
[
  {
    "compound": "O=C(O)CCCN1C(=O)c2ccccc2Sc2ncccc21",
    "% elongation [%]": 101
  },
  {
    "compound": "O=C1CCC(=O)N1OCC1CCCN2CCCCC12 (stereo unspecified)",
    "% elongation [%]": 104
  },
  {
    "compound": "CS(=O)(=O)C1=NSC2=NC(=O)/C(=C\\c3ccco3)C(=N)N21",
    "% elongation [%]": 66
  },
  {
    "compound": "CN(C)/N=C/C=C1\\CCC/C(=C\\C=N\\N(C)C)C1=O",
    "% elongation [%]": 165
  },
  {
    "compound": "CC(C)(C)C1C/C(=C/c2ccco2)C(=O)/C(=C/c2ccco2)C1 (stereo unspecified)",
    "% elongation [%]": 76
  }
]

Alright, here's another compound for you.
Query: Suppose we examine the compound Cc1ccc(N2C(=O)NC(=O)/C(=C\c3ccco3)C2=O)c(C)c1 ; what % elongation value has been reported?
Reply: 99

* * *

Target: Genome polyprotein (Poliovirus type 1 (strain Mahoney)) (UniProt P03300)
Experiment: poliovirus RdRp elongation inhibitors, primary screen, biochemical, fluorescence polarization, total intensity (AID 588519)
Details: poliovirus polymerase elongation, compound at 16.7 µg/mL
The campaign covered roughly 150,000 compounds. About 1,000 (0.67%) were called active. No stated cut-off is given here; in the data, active means % elongation below about 90%; inactive means the rest, inconclusive results apart. This is one part of a sample in which actives are shown more often than they occur.
Hi! Could you answer with just one of these? 1.0 = active, 0.0 = inactive

Past entries and their recorded results:
[
  {
    "molecule": "Cc1cc(C(=O)COc2ccc(-n3ccnc3)cc2)c(C)n1-c1ccc2c(c1)OCO2",
    "assigned-class": 0.0
  },
  {
    "molecule": "O=C(O)CSc1nnc(-c2ccccc2)n1-c1ccccc1",
    "assigned-class": 0.0
  },
  {
    "molecule": "CCOC(=O)C1(C2(O)C(=O)c3ccccc3C2=O)CCCC1=O (centres undefined)",
    "assigned-class": 1.0
  },
  {
    "molecule": "N#CSc1ccc(N)c(Br)c1",
    "assigned-class": 1.0
  },
  {
    "molecule": "NS(=O)(=O)c1ccc(CCN(Cc2nc3ccsc3c(=O)[nH]2)Cc2nc3ccsc3c(=O)[nH]2)cc1",
    "assigned-class": 0.0
  }
]

Query: I'd appreciate the recorded outcome for CCOC(=O)c1c(NC2=CC(=O)CCC2)sc2c1CCCCC2 from this test.
Reply: 0.0

Query: I'd appreciate the recorded outcome for C=C(C)CNC(=S)N1CCNCC1 from this test.
Reply: 0.0

Query: I'd appreciate the recorded outcome for CC1CC(C)CN(C(=O)COC(=O)c2ccc(C#N)cc2)C1 (centres undefined) from this test.
Reply: 0.0

Query: I'd appreciate the recorded outcome for C=CCN1CCN(C(c2ccc(C)cc2)c2nnnn2C2CCCC2)CC1 (centres undefined) from this test.
Reply: 0.0

Query: I'd appreciate the recorded outcome for O=C(CSc1nnc(-c2ccncc2)n1-c1ccccc1)Nc1ccccc1 from this test.
Reply: 0.0

Query: I'd appreciate the recorded outcome for O=C(CSC(=S)N1CCCC1)Nc1ccccc1OC(F)F from this test.
Reply: 0.0

Query: I'd appreciate the recorded outcome for CCN(CC)S(=O)(=O)c1cc(C(=O)N2CCN(Cc3ccc4c(c3)OCO4)CC2)ccc1Cl from this test.
Reply: 0.0

Query: I'd appreciate the recorded outcome for Cc1ccc2nc(C)c3c(c2c1)N(c1ccccc1)CC3 from this test.
Reply: 1.0

Query: I'd appreciate the recorded outcome for C/C(=N\c1ccccn1)C1=C(O)c2ccccc2C1=O from this test.
Reply: 0.0
